Provide the recorded LD50 for the entries that follow.
Assay: Acute toxicity after a single i.v. injection in non-infected mice
Assay type: in vivo
Conditions: mouse, in vivo, iv; single i.v. injection, mice; read-out: dose léthale 50 % (LD₅₀)
Description: La toxicité aiguë en fonction de la dose unique administrée est déterminée sur des souris de 18 à 22 g. Une série de dilutions de chaque composé est injectée par voie intraveineuse à des groupes de 10 souris. ^a : les dérivés sont administrés par vote i.v. trois heures après l'inoculation des sporozoïtes. […]

Query (compound): COc1cc(NC(C)CCCN)c2ncccc2c1 (centres unmarked) [Pq, reference compound] ; field requested: LD50
31 mg/kg

Query (compound): COc1cc(NC(C)CCCNC(=O)[C@@H](N)CCC(=O)O)c2ncccc2c1 (some centres unmarked) ; field requested: LD50
136 mg/kg
